Assign growth to each entry below.
test system: HT29 colon; test: NCI-60 one-dose screen, 48 h (100 = growth as untreated, 0 = no growth, -100 = all killed); conditions: 10 µM unless noted
Compounds without any hit were thinned out: in the full panel of roughly 83,000, 20% have a hit. The source made the active and inactive calls. Rule for the calls: active = growth percent below 10; inactive = the rest.

Prompt: Give growth for the following compound: "COc1cc2oc(-c3cccc(NC(=O)c4cccc([N+](=O)[O-])c4)c3)cc(=O)c2c(OC)c1OC"
Response: 66.4% (inactive)

Prompt: Respond only with growth recorded for "O=C(/C=C/c1ccccc1Cl)Nc1ncc(Cc2cc(Cl)ccc2Cl)s1"
Response: -18% (active)

Prompt: Quote growth reported for "Cc1cccc(N2CCN(C3=C(Cl)C(=O)c4ncccc4C3=O)CC2)c1" please.
Response: 104% (inactive)

Prompt: Please report the measured growth for "O=C(/C=C/c1cccc(F)c1)c1cccc(OCCCCOc2cccc(C(=O)/C=C/c3cccc(F)c3)c2)c1"
Response: 106% (inactive)

Prompt: Answer with the recorded growth of CC[C@]12C=CCN3CC[C@]4(C(=C(C(=O)OC)C1)Nc1cc5c(cc14)[C@@H]1[C@H](O5)[C@@H](O)[C@@]4(CC)CC(C(=O)OC)=C5Nc6cc(O)ccc6[C@@]56CCN1C46)C32 (stereo partly drawn) only.
Response: 4.53% (active)

Prompt: Return value of growth for input "O=C1[C@@H]2Cc3c([nH]c4ccccc34)[C@@H](c3ccc(Cl)cc3)N2C(=O)CN1C1CCN(Cc2c(F)cccc2F)CC1" , no commentary.
Response: -10.2% (active)

Prompt: Provide growth value for the following compound: "CCc1cc(O)ccc1Nc1cc(-c2ccc(-n3cccn3)cc2)[nH]n1"
Response: 77.4% (inactive)

Prompt: Note growth for the compound shown: "O=C(CSc1nnc(-c2ccc(Cl)cc2)n1-c1ccccc1)Nc1ccc(Cl)cc1"
Response: 62.6% (inactive)

* * *

Consider the following compounds; for each one, report its growth.
test system: NCI-H226 lung; assay: NCI-60 one-dose screen, 48 h (100 = growth as untreated, 0 = no growth, -100 = all killed); conditions: 10 µM unless noted
The panel holds about 83,000 compounds, 20% with a hit somewhere; the sample as a whole holds those more often.
# value in %; strip the unit string

Prompt: Give reported growth value for "C1=CC(c2nn3c(-c4ccccc4)nnc3s2)=Cc2ccccc2O1"
Response: 31.7

Prompt: Give growth for the following compound: "N#Cc1nc(-c2ccccc2)oc1N1CCC(C2(C(F)(F)F)N=N2)CC1"
Response: 97

Prompt: Find the measured growth of "CCOC(=O)c1c(NC(=O)c2cccc(C(F)(F)F)c2)sc2c3c(ccc12)OCN(C)C3" and report it.
Response: 77.8

Prompt: Report growth for "CC1=C(C)C(=O)C(Nc2cccc(C)c2)=C(Br)C1=O"
Response: 92.2

Prompt: Name the recorded growth of the compound listed here: "O=C1[C@@H]2Cc3c([nH]c4ccccc34)[C@@H](c3ccc(Cl)cc3)N2C(=O)CN1C1CCN(Cc2ccccc2)CC1"
Response: 72.5

Prompt: Write down growth measured for item "C#CCn1cc(/C=N/Nc2nc(-c3ccc(Br)cc3)cs2)c2ccccc21"
Response: 94.7

Prompt: # return recorded growth for input "Cc1[nH]c(C(=O)Nc2ccc(S(=O)(=O)N3CCCCC3)cc2OCCOCCOCCOCCOCCOCCOCCOCCOCCOc2cc(S(=O)(=O)N3CCCCC3)ccc2NC(=O)c2[nH]c(C)c3c2CCCCC3=O)c2c1C(=O)CCCC2"
Response: -2.37

Prompt: Consider the compound "CNC(=O)c1cc(N2CCc3cc(NC(=O)Nc4ccc(N5CCOCC5)c(C(F)(F)F)c4)ccc32)ccn1" . State its measured growth.
Response: 35.2

Prompt: Respond only with growth recorded for Nc1cc(C(=O)N/N=C\c2ccc(OC(F)F)c(OC3CCCC3)c2)nn1CC(O)c1ccccc1 (centres undefined)
Response: 92.7

Prompt: For the compound "Cc1ccc(C(=O)CSc2nc3ccccc3c(=O)n2C)cc1" , give its measured growth value.
Response: 78.5

Prompt: Look up growth of C=CCSC1=NC2C(N(CC)C(=O)N2CC)N1/N=C/C=C/c1ccccc1OC (centres undefined) and report it.
Response: 78.3

Prompt: Return the recorded growth value; entry: Cc1[nH]c(C(=O)Nc2ccc(C(N)=O)cc2N2CCOC(C)C2)c(Cl)c1Cl (centres undefined)
Response: 89.9

Prompt: Determine from records and report growth for COc1ccc(/C=N\NC(=O)c2cnn(CC(O)c3ccccc3)c2N)cc1OCc1ccc(Cl)cc1 (centres undefined)
Response: 90.7

Prompt: Return reported growth. Input compound: CC(=O)C1=C(C)NC(NNc2ccccc2)=NC1c1ccc([N+](=O)[O-])cc1 (centres undefined)
Response: 96.7

Prompt: Fill in growth for record "CN1CCN(Cc2ccc(NC(=O)c3cncc(C#Cc4cnc5ccc(NCCO)nn45)c3)cc2C(F)(F)F)CC1"
Response: -14

Prompt: Give reported growth value for "COc1ccc(/C=N/N=C(/c2ccccc2)c2ccc3nc(-c4ccc(Cl)cc4)[nH]c3c2)cc1"
Response: 77

Prompt: Provide growth value for the following compound: "Cn1c(SCC(=O)c2ccc(F)cc2)nc2ccccc2c1=O"
Response: 93

Prompt: Tell me its growth given "O=C(CCCCCCNC(=O)C(O)(O)C(F)(F)F)Nc1ccc(Br)cc1" as the entry.
Response: 37.2

Prompt: Quote growth reported for "O=S(=O)(NCCCNc1nccc(-c2[nH]c(-c3ccccc3)nc2-c2ccc(F)c(O)c2)n1)c1ccc(C(F)(F)F)cc1" please.
Response: 48.5

Prompt: State its growth for this compound: "C/C(=N\NC(=O)Nc1ccccc1)c1nnn(-c2ccc([N+](=O)[O-])cc2)c1C"
Response: 100

Prompt: Note growth for the compound shown: "N#Cc1c(-c2ccc(F)cc2)cc(-c2c[nH]c3ccccc23)nc1-c1c[nH]c2ccccc12"
Response: 94

Prompt: Report measured growth; entry is "Clc1ccc2c(N/N=C/c3c[nH]c4ccccc34)ccnc2c1"
Response: -52.1

Prompt: Quick one: give measured growth for "Fc1ccc2nc(-c3cnn4cccnc34)sc2c1"
Response: 83.1

Prompt: Tell us which growth value is on record for "CCN(CC)c1ccc(/C=N/NC(=O)c2ccc(S(N)(=O)=O)cc2)c(O)c1"
Response: 43.1

Prompt: Specify reported growth for the compound shown: CC(O)c1cccc(/C(N)=N/C(N)=N/c2nc3ccccc3s2)c1 (centres undefined)
Response: 85.9

Prompt: Let me know recorded growth for "CCOC(=O)c1ccc(NC2=C(Cl)C(=O)c3nc(C)ccc3C2=O)cc1" , thanks.
Response: 85.5

Prompt: Please list growth recorded for the compound "C#CCOc1ccc(-c2csc(NC(=O)C=C)n2)cc1NS(=O)(=O)c1cccc2c(N(C)C)cccc12"
Response: 33.1

Prompt: Please indicate growth recorded for "CC(=O)OCCCCN1C=C/C(=C\C(=O)n2ccc3ccccc32)c2ccccc21"
Response: 88.5

Prompt: Give recorded growth. "Cc1ccc(C(=O)CSc2nnc(-c3ccc(-c4ccc(Cl)cc4)nc3C)o2)cc1"
Response: 88.6

Prompt: Look up and state reported growth for "C/C(=N/N)c1nnn(-c2ccc(Br)cc2)c1C"
Response: 91.5

Prompt: Report measured growth; entry is "CN1CCN(Cc2ccc(NC(=O)c3cncc(C#Cc4cnc5ccc(OCC6COC6)nn45)c3)cc2C(F)(F)F)CC1"
Response: -65.2

Prompt: Look up and state reported growth for "Brc1cc(-c2cc(-c3ccc4c(c3)OC=CO4)[nH]n2)cs1"
Response: 92

Prompt: For the compound "O=C(COc1ccc(/C=C2\C(=O)Nc3cc(Cl)ccc32)cc1)Nc1ccc(Cl)cc1" , report growth.
Response: 79.1

Prompt: # return recorded growth for input "N#Cc1c(-c2cccs2)cc(-c2cnccn2)nc1SCC(=O)N/N=C/c1ccncc1"
Response: 104

Prompt: Tell me growth reported for "O=C(CCCCCCNC(=O)C(O)(O)C(F)(F)F)Nc1ncc(-c2ccccc2)s1"
Response: 14.9

Prompt: Return reported growth. Input compound: "C#Cc1nc(/C=C/CCCCCCC(=O)NO)cs1"
Response: 87.6

Prompt: Fill in reported growth for this entry: "CSc1ccc(C(=NNS(=O)(=O)c2ccc(C)cc2)c2ccc(Cl)cc2)cc1"
Response: 98

Prompt: Given the compound C/C(=C(/C)C1CC1CCNC1CCC(NC(=O)OC(C)(C)C)CC1)c1ccccc1 (centres undefined) , write its reported growth.
Response: 80.1

Prompt: Dear colleague, please send me the reported growth for "CCOC(=O)c1c(NC(=O)c2cccc(C(F)(F)F)c2)sc2c1CCC(=O)C2" when you can.
Response: 71.8

Origin of values: PubChem BioAssay (NCI)
